Listed next: entries and their corresponding melting point.

Take a look at these entries with their results.
>>> testvalue("CCOC(=O)CN(C(C)=O)c1ccc(N/C(=C2\\C(=O)Nc3ccccc32)c2ccccc2)cc1 [Example 352]")
"244 to 247 °C"
>>> testvalue("CC1(O)CCN(Cc2ccc(N/C(=C3\\C(=O)Nc4ccc([N+](=O)[O-])cc43)c3ccccc3)cc2)CC1 [Example 251]")
"186 to 187 °C"
>>> testvalue("CN(C)CCN(C)C(=O)CN(c1ccc(N/C(=C2\\C(=O)Nc3ccc([N+](=O)[O-])cc32)c2ccccc2)cc1)S(C)(=O)=O [Example 294]")
"138 to 140 °C"
>>> testvalue("O=C1Nc2ccc([N+](=O)[O-])cc2/C1=C(/Nc1ccc(CN2CCC(Cc3ccccc3)CC2)cc1)c1ccccc1 [Example 172]")
"252 °C"
>>> testvalue("CS(=O)(=O)N(CC(N)=O)c1cccc(N/C(=C2\\C(=O)Nc3ccccc32)c2ccc(CN)cc2)c1 [Example 416]")
"167 °C"
>>> testvalue("CN(C)C(=O)CCNCc1ccc(N/C(=C2\\C(=O)Nc3ccc([N+](=O)[O-])cc32)c2ccccc2)cc1 [Example 243]")
"215 to 217 °C"
>>> testvalue("CC(C)(C)OC(=O)N1CCN(Cc2ccc(N/C(=C3\\C(=O)Nc4ccc([N+](=O)[O-])cc43)c3ccccc3)cc2)CC1 [Example 244]")
"236 to 237 °C (dec.)"
>>> testvalue("CCOC(=O)CN(C(=O)c1ccccc1)c1ccc(N/C(=C2\\C(=O)Nc3ccccc32)c2ccccc2)cc1 [Example 360]")
"209 to 211 °C"
>>> testvalue("CC(C)(C)OC(=O)NCC(=O)Nc1ccc(N/C(=C2\\C(=O)Nc3ccccc32)c2ccccc2)cc1 [Example 34]")
"243 to 244 °C (dec.)"
>>> testvalue("CN(C)CCNc1ccc(N/C(=C2\\C(=O)Nc3ccc([N+](=O)[O-])cc32)c2ccccc2)cc1 [Example 326]")
"227 to 229 °C"

Kindly consider the entry below.
Which melting point value belongs to COc1cccc(N/C(=C2\C(=O)Nc3ccccc32)c2ccccc2)c1 [Example 3] ?
218 to 221 °C

* * *

Listed next: entries and their corresponding melting point.

>>> testvalue("CN(C)CCN(c1cccc(N/C(=C2\\C(=O)Nc3ccccc32)c2ccccc2)c1)S(C)(=O)=O [Example 324]")
"208 to 211 °C"
>>> testvalue("O=C1Nc2ccc([N+](=O)[O-])cc2/C1=C(/Nc1ccc(CCN2CCCCCC2)cc1)c1ccccc1 [Example 265]")
"217 to 222 °C"
>>> testvalue("COCCN(C)C(=O)c1ccc(N/C(=C2\\C(=O)Nc3ccccc32)c2ccccc2)cc1 [Example 389]")
"198 to 200 °C"
>>> testvalue("CN(Cc1ccc(N/C(=C2\\C(=O)Nc3ccc([N+](=O)[O-])cc32)c2ccccc2)cc1)c1ncccn1 [Example 272]")
"236 to 239 °C"
>>> testvalue("CNC(=N)c1cccc(N/C(=C2\\C(=O)Nc3ccccc32)c2ccccc2)c1 [Example 65]")
"248 to 250 °C"

Which melting point value belongs to CCC(=O)N(CCN1CCOCC1)c1ccc(N/C(=C2\C(=O)Nc3ccc([N+](=O)[O-])cc32)c2ccccc2)cc1 [Example 335] ?
232 °C

Could you do the same for CC(C)(C)OC(=O)NCCc1ccc(N/C(=C2\C(=O)Nc3ccc([N+](=O)[O-])cc32)c2ccccc2)cc1 [Example 127] , please?
213 to 214 °C

Could you do the same for O=C1Nc2ccc([N+](=O)[O-])cc2/C1=C(/Nc1ccc(CN2CCCCC2)cc1)c1ccc(C(F)(F)F)cc1 [Example 442] , please?
300 to 302 °C
